# Tested On: human dopamine D3 receptors (Homo sapiens)
# Construct: expressed in transfected cells; membranes
# Sequence (P35462 whole entry): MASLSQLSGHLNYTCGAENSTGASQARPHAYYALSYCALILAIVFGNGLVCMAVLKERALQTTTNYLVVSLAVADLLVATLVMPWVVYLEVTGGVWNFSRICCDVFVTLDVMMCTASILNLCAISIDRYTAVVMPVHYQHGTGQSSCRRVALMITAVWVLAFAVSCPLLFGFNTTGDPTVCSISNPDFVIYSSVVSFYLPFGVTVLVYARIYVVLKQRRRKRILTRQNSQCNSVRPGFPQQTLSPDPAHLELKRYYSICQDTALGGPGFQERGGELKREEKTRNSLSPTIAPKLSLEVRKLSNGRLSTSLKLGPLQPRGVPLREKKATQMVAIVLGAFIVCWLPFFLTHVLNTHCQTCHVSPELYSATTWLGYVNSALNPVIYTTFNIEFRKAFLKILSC
# Experimental Details: Dopamine D3 receptor binding, [125I]-iodosulpride displacement
# Condition Description: selectivity ratio of receptor binding constants D2 versus D3
Recorded Metric: Ki(D2)*/Ki(D3)*
One number for each entry.

These recorded examples may help you get a feel for the data.
>  <Compound>
CCCN[C@@H]1CCc2cc(NS(=O)(=O)c3ccc(C(C)C)cc3)ccc2C1 [Example 3]

>  <Ki(D2)*/Ki(D3)*>
30

$$$$
>  <Compound>
CCCN[C@H]1CCc2cc(NS(=O)(=O)c3ccc(C(C)=O)cc3)ccc2C1 [Example 60]

>  <Ki(D2)*/Ki(D3)*>
274

$$$$
>  <Compound>
CC(C)c1ccc(S(=O)(=O)Nc2ccc3c(c2)CC[C@H](NCCCF)C3)cc1.Cl [Example 68]

>  <Ki(D2)*/Ki(D3)*>
42

$$$$
>  <Compound>
CCCN[C@@H]1CCc2ccc(NS(=O)(=O)c3ccc(C(C)C)cc3)cc2C1 [Example 2]

>  <Ki(D2)*/Ki(D3)*>
32

$$$$
>  <Compound>
CCCN[C@H]1CCc2cc(NS(=O)(=O)c3ccc([C@@H](C)CF)cc3)ccc2C1.Cl [Example 56]

>  <Ki(D2)*/Ki(D3)*>
161

$$$$
>  <Compound>
CCCN[C@H]1CCc2cc(NS(=O)(=O)c3ccc(-c4cnco4)s3)ccc2C1 [Example 38]

>  <Ki(D2)*/Ki(D3)*>
151

$$$$

Please look at the items below and tell me Ki(D2)*/Ki(D3)* for each one, in order.
1. CCCN[C@H]1CCc2cc(NS(=O)(=O)c3ccc(C(C)C)cc3)ccc2C1.Cl [Example 8]
2. CCCN[C@H]1CCc2cc(NS(=O)(=O)c3ccc(C(C)C(F)(F)F)cc3)ccc2C1 (mixture of isomers) [Example 40]

Outgoing:
1. 102
2. 221
